System: bradykinin response of isolated guinea pig ileum
MEASUREMENT DESCRIPTION: Anti-bradykinin activity on isolated guinea pig ileum
CONDITION DETAILS: isolated guinea pig ileum; pD2 of bradykinin is 7.4; higher numbers indicate higher potency
OBSERVED PROPERTY: GPI: pA2 for bradykinin antagonist activity on isolated guinea pig ileum

| MOLECULE | REPORTED VALUE |
| --- | --- |
| CN(C(=O)C(Cc1cc(I)c(OCc2c(Cl)cccc2Cl)c(I)c1)NC(=O)C=Cc1c(F)c(F)c(F)c(F)c1F)C1CC(C)(C)NC(C)(C)C1 (stereo not drawn) [M664] | 5.0 |
| COC(=O)C1(NC(=O)[C@H](Cc2ccc3ccccc3c2)NC(=NC2CCCCC2)NC2CCCCC2)CC(C)(C)NC(C)(C)C1 [M244A] | 5.0 |
| O=C(NC(CNC(=O)C(Cc1ccc2ccccc2c1)NC(=NC1CCCCC1)NC1CCCCC1)C(=O)O)C1CCNCC1 (stereo not drawn) [M172] | 4.9 |

====

GPI: pA2 for bradykinin antagonist activity on isolated guinea pig ileum values, listed per item
Test system: bradykinin response of isolated guinea pig ileum
MEASUREMENT DESCRIPTION: Anti-bradykinin activity on isolated guinea pig ileum
CONDITION DETAILS: isolated guinea pig ileum; pD2 of bradykinin is 7.4; higher numbers indicate higher potency
OBSERVED PROPERTY: GPI: pA2 for bradykinin antagonist activity on isolated guinea pig ileum

| MOLECULE | REPORTED VALUE |
| --- | --- |
| N=C(N)NC(Cc1ccc2ccccc2c1)C(=O)Nc1ccc(CC(=O)O)cc1 (stereo not shown) [M38] | 4.9 |
| O=C(C=Cc1ccc(NC(=O)CCCCCCCCCCC(=O)Nc2ccc(C=CC(=O)NC(Cc3ccc4ccccc4c3)C(=O)NC3CCNCC3)cc2)cc1)NC(Cc1ccc2ccccc2c1)C(=O)NC1CCNCC1 (stereo not shown) | 5.0 |
| Nc1cc(NC(=O)C(Cc2ccc3ccccc3c2)NC(=NC2CCCCC2)NC2CCCCC2)cc(C(=O)O)c1 (stereo not shown) | 5.0 |
| O=C(NC(Cc1ccc(NC(=NC2CCCCC2)NC2CCCCC2)cc1)C(=O)O)c1ccc2ccccc2c1 (stereo not shown) | 4.7 |

====

Tested on: SCLC strain SHP-77
MEASUREMENT DESCRIPTION: Colorimetric tetrazolium (MTT) assay for cell survival, SCLC strain SHP-77
Assay type: cell-based, human
CONDITION DETAILS: Table 1; SHP-77, MTT, 4 days
Note that class boundaries on MTT: ED50 for killing of SCLC strain SHP-77 in vitro are bucket 1 (below 7 µM), bucket 2 (7 µM to below 10 µM), bucket 3 (10 µM or more)

| SUBSTANCE | TESTED TARGET | ASSIGNED LABEL |
| --- | --- | --- |
| DDD-(Eac-Arg-DIgl-Oic-Arg-OMe)2 [M608] | SCLC strain SHP-77 | bucket 3 |
| α-DDD-(K-DArg-Arg-Eac-Ser-DF5F-Oic-Arg)2 [M950] | SCLC strain SHP-77 | bucket 1 |
| DDD-(DArg-Arg-Aud-DTic-Oic-Arg)2 [M790] | SCLC strain SHP-77 | bucket 1 |
| DDD-(DArg-Arg-Aud-DIgl-PFF-Arg)2 [M842] | SCLC strain SHP-77 | bucket 1 |
| (Gun)2-BApG-DArg-Arg-Pro-Hyp-Gly-Igl-Ser-DIgl-Oic-Arg [B10092] | SCLC strain SHP-77 | bucket 3 |
| DDD-(Arg-DIgl-Oic-Arg-OMe)2 [M598] | SCLC strain SHP-77 | bucket 3 |
| (DArg-Arg-Pro-Hyp)2Dpr-Igl-Ser-DIgl-Oic-Arg [B10098] | SCLC strain SHP-77 | bucket 3 |
| DDD-(DArg-Arg-Aud-PaF(F5c)-Arg)2 [M728] | SCLC strain SHP-77 | bucket 1 |
| SUIM-(DArg-Arg-Pro-Hyp-Gly-Igl-Ser-DIgl-Oic-Arg) [B9870-2, reference compound] | SCLC strain SHP-77 | bucket 1 |
| DDD-(DArg-Arg-Aud-DIgl-hPhe-Arg)2 [M786] | SCLC strain SHP-77 | bucket 1 |
| DDD-(DArg-Arg-Aud-Pac-2Nal-Arg)2 [M516] | SCLC strain SHP-77 | bucket 1 |
| F5c-DArg-Arg-Aud-DIgl-PFF-Arg [M838] | SCLC strain SHP-77 | bucket 2 |
| F5c-DArg-Arg-Aud-DTic-Oic-Arg [M788] | SCLC strain SHP-77 | bucket 2 |
| EGS-(DArg-Arg-Pro-Hyp-Gly-Igl-Ser-DIgl-Oic-Arg)2 [B10252] | SCLC strain SHP-77 | bucket 3 |
| TDIM-(DArg-Arg-Pro-Hyp-Gly-Igl-Ser-DIgl-Oic-Arg)2 [B10100-2] | SCLC strain SHP-77 | bucket 1 |
| F5c-DArg-Arg-Aud-DIgl-hPhe-Arg [M774] | SCLC strain SHP-77 | bucket 2 |
| F5c-DArg-Arg-Eac-Ser-DTic-Oic-Arg [M792] | SCLC strain SHP-77 | bucket 3 |
| Dmac-DArg-Arg-Aud-Ser-D5F5-Oic-Arg [M968] | SCLC strain SHP-77 | bucket 3 |
| α-Lys-DArg-Arg-Pro-Hyp-Gly-Igl-Ser-DIgl-Oic-Arg Sub-Arg-DNMF-DTrp-Phe-DTrp-Leu [B9950] | SCLC strain SHP-77 | bucket 2 |
| SUB-(DArg-Arg-Eac-Ser-DF5f-Nc7G-Arg)2 [M1024] | SCLC strain SHP-77 | bucket 3 |
| SUIM-(DArg-Arg-Pro-Hyp-Gly-Igl-Ser-DIgl-Oic-Arg-NH2)2 [B10082] | SCLC strain SHP-77 | bucket 1 |
| F5bz-DArg-Arg-Aud-Ser-D5F5-Oic-Arg [M958] | SCLC strain SHP-77 | bucket 3 |
| F5c-DArg-Arg-Aud-Ser-D5F5-Oic-Arg [M888] | SCLC strain SHP-77 | bucket 3 |
| EGS-(DArg-Arg-Eac-Ser-DF5F-Nc7G-Arg)2 [M1030] | SCLC strain SHP-77 | bucket 3 |
| DDD-(DArg-Arg-Aud-Pac-2Nal-DArg-NH2)2 [M710] | SCLC strain SHP-77 | bucket 1 |
| Moti-DArg-Arg-Pro-Hyp-Gly-Thi-Ser-DIgl-Oic-Arg [B10104-3] | SCLC strain SHP-77 | bucket 3 |
| DDD-(Lys-Pac-Gly-mABz-2Nal-NH2)2 [M494] | SCLC strain SHP-77 | bucket 3 |
| DDD-(DArg-Arg-Eac-Ser-DF5F-Oic-Arg)2 [M804] | SCLC strain SHP-77 | bucket 2 |

====

Tested on: bradykinin response of isolated guinea pig ileum
MEASUREMENT DESCRIPTION: Anti-bradykinin activity on isolated guinea pig ileum
CONDITION DETAILS: isolated guinea pig ileum; pD2 of bradykinin is 7.4; higher numbers indicate higher potency
OBSERVED PROPERTY: GPI: pA2 for bradykinin antagonist activity on isolated guinea pig ileum

| COMPOUND | REPORTED VALUE |
| --- | --- |
| CC1(C)CC(NC(=O)C(Cc2ccc(OCc3ccccc3)cc2)NC(=O)C=Cc2c(F)c(F)c(F)c(F)c2F)CC(C)(C)N1 (stereo not drawn) | 5.1 |
| CN(C)c1cccc2c(S(=O)(=O)NC(Cc3cc(I)c(OCc4c(Cl)cccc4Cl)c(I)c3)C(=O)N(C)C3CC(C)(C)NC(C)(C)C3)cccc12 (stereo not drawn) | 5.0 |
| O=C(O)c1cccc(NC(=O)C(Cc2ccc3ccccc3c2)NC(=NC2CCCCC2)NC2CCCCC2)c1 (stereo not drawn) [M76] | 4.9 |

====

System: SCLC strain SHP-77
MEASUREMENT DESCRIPTION: Colorimetric tetrazolium (MTT) assay for cell survival, SCLC strain SHP-77
Format: cell-based, human
CONDITION DETAILS: Table 1; SHP-77, MTT, 4 days
OBSERVED PROPERTY: MTT: ED50 for killing of SCLC strain SHP-77 in vitro

| SUBSTANCE | REPORTED VALUE |
| --- | --- |
| 33Dp-DArg-Arg-Aud-Ser-D5F5-Oic-Arg [M964] | 4 to 8 µM |
| DArg-Arg-Pro-Hyp-Gly-Igl-Ser-DIgl-Oic-Arg-NH2 [B10062] | Inact |
| Leu-Leu-DTrp-Phe-DTrp-DNMF-Eac2-DArg-Arg-Pro-Hyp-Gly-Igl-Ser-Digl-Oic-Arg [B10162] | 7 µM |
| D-Arg-Arg-Aud-PaF(F5c)-Arg [M726] | Inact |
| Aaa-DArg-Arg-Eac-Ser-D5F5-Oic-Arg [M954] | 10 µM |
| Aaa-Ser-Pac-hPhe-Arg [M752-5] | Inact |
